Tested on: Escherichia coli
Assay: Antibacterial activity against Escherichia coli ATCC 8099 after 24 hrs by NCCLS two fold broth microdilution method
Format: functional
Details: ATCC 8099, 24 h
EXPERIMENTAL READOUT: MIC (µg/mL)

[
  {
    "MOLECULAR STRING": "CCn1c(CS(=O)(=O)c2ccc(N)cc2)nc2ccccc21",
    "MEASURED RESULT": 64
  },
  {
    "MOLECULAR STRING": "CCCCCCn1c(CS(=O)(=O)c2ccc(NC(C)=O)cc2)nc2ccccc21",
    "MEASURED RESULT": 512
  },
  {
    "MOLECULAR STRING": "CC(=O)Nc1ccc(S(=O)(=O)Cc2nc3ccccc3n2Cc2ccc(F)cc2)cc1",
    "MEASURED RESULT": 32
  },
  {
    "MOLECULAR STRING": "CCCCCCCCCCCCn1c(CS(=O)(=O)c2ccc(N)cc2)nc2ccccc21",
    "MEASURED RESULT": 512
  },
  {
    "MOLECULAR STRING": "CCCCCCCn1c(CS(=O)(=O)c2ccc(NC(C)=O)cc2)nc2ccccc21",
    "MEASURED RESULT": 64
  },
  {
    "MOLECULAR STRING": "CC(=O)Nc1ccc(S(=O)(=O)Cc2nc3ccccc3n2CCCCCn2c3ccccc3c3ccccc32)cc1",
    "MEASURED RESULT": 512
  },
  {
    "MOLECULAR STRING": "CCCCCCCCCCCCCCCCCCn1c(CS(=O)(=O)c2ccc(N)cc2)nc2ccccc21",
    "MEASURED RESULT": 512
  },
  {
    "MOLECULAR STRING": "CCCCCCCCCCn1c(CS(=O)(=O)c2ccc(NC(C)=O)cc2)nc2ccccc21",
    "MEASURED RESULT": 512
  },
  {
    "MOLECULAR STRING": "CC(=O)Nc1ccc(S(=O)(=O)Cc2nc3ccccc3n2Cc2ccc(Cl)cc2Cl)cc1",
    "MEASURED RESULT": 8
  },
  {
    "MOLECULAR STRING": "CC(=O)Nc1ccc(S(=O)(=O)Cc2nc3ccccc3[nH]2)cc1",
    "MEASURED RESULT": 64
  }
]

====

Tested on: Escherichia coli
Experiment: Antibacterial activity against Escherichia coli ATCC 8099 after 24 hrs by NCCLS two fold broth microdilution method
Format: functional
Conditions: ATCC 8099, 24 h
Entries and their MIC values follow.
EXPERIMENTAL READOUT: MIC (µg/mL)

[
  {
    "MOLECULAR STRING": "Nc1ccc(S(=O)(=O)Cc2nc3ccccc3n2Cc2cccc(F)c2)cc1",
    "EXPERIMENTAL READOUT": "MIC",
    "MEASURED RESULT": 128
  },
  {
    "MOLECULAR STRING": "Nc1ccc(S(=O)(=O)Cc2nc3ccccc3n2Cc2ccccc2Cl)cc1",
    "EXPERIMENTAL READOUT": "MIC",
    "MEASURED RESULT": 128
  },
  {
    "MOLECULAR STRING": "Nc1ccc(S(=O)(=O)Cc2nc3ccccc3n2Cc2cccc(Cl)c2)cc1",
    "EXPERIMENTAL READOUT": "MIC",
    "MEASURED RESULT": 32
  },
  {
    "MOLECULAR STRING": "CC(=O)Nc1ccc(S(=O)(=O)Cc2nc3ccccc3n2Cc2ccccc2Cl)cc1",
    "EXPERIMENTAL READOUT": "MIC",
    "MEASURED RESULT": 32
  },
  {
    "MOLECULAR STRING": "CC(=O)Nc1ccc(S(=O)(=O)Cc2nc3ccccc3n2Cc2ccccc2F)cc1",
    "EXPERIMENTAL READOUT": "MIC",
    "MEASURED RESULT": 256
  }
]
